Source listed as paper PMC4072508.

System tested: T1, Bfl-1, Q16548
T1 chain: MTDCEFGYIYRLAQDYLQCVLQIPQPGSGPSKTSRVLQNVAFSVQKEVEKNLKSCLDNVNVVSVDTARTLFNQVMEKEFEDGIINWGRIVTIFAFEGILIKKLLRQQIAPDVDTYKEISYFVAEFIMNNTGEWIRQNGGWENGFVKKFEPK
Protocol description: peptide SPOT array, c-Myc-tagged receptor at 1 uM or 100 nM, anti-c-Myc-Cy3
Experimental readout: SPOT signal as a fraction of Bim BH3's signal on the same receptor and array

binder="VKVLGKAVHSLSRIGDELYLEPLEDG [RAD9A]" obs_value=0.03
binder="ELDEDDLEAEDDALGDELLADEDSSY [CHMP5]" obs_value=0.03
binder="AGLDMNISQFLKSLGLEHLRDIFETE [TNKS]" obs_value=0.03
binder="EAVTDGLKRADRSFGNALGNCILDKD [RAD52]" obs_value=0.03
binder="HTALENCASLDCIRADELQEALTSHC [MYO3A]" obs_value=0.03
